Test system: Hs-578T
Assay: NCI tumour cell line growth inhibition, 48 h
The source made the active and inactive calls. Rule as the data show it: active = GI50 up to about 1.1 µM and inactive = higher.
Labels: active, inactive

* O=C(Nc1sccc1S(=O)(=O)c1ccccc1)c1ccccc1 | inactive
* Oc1cccc(-c2cc(O)c3cc4c(cc3n2)OCO4)c1 | active
* O=c1[nH][nH]c(=O)c2c1ccc1oc3ccccc3c12 | inactive
* CC(C)/C(Cl)=N\OC(=O)Nc1ccc(F)c([N+](=O)[O-])c1 | inactive
* O=C1C(O)=C(CCCCCCCCC2CCCCC2)C(=O)c2ccccc21 | inactive
* COC(=O)Cc1ccc2c(cnn2-c2ccccc2)c1OC | inactive
* COc1cc(COC(=O)N2CCCCC2C(=O)O)c([N+](=O)[O-])cc1OC (stereo not given) | inactive
* COC(=O)[C@@H]1[C@H]2CC[C@]3(C)[C@@H](OC(C)=O)CC[C@H]3[C@@H]2CC[C@H]1C(C)=O | inactive
* CCN(CC)c1ccc2cc(C(=O)Nc3ccc(C)cc3)c(=N)oc2c1 | inactive
* CN1C(=O)NC(=O)/C(=C\Nc2ncccn2)C1=O | inactive

====

Test system: HCT-15
MEASURED ENDPOINT: GI50

- Cc1n[nH]c(=O)n1/N=C/c1ccc([N+](=O)[O-])cc1: > 100 µM
- N=C(N)NCCCC(NC(=O)OCCCCCCn1ccc(N)nc1=O)C(=O)O (stereo unspecified): > 100 µM
- CC(C)(C)c1ccc2c(c1)C#Cc1cc(C(C)(C)C)ccc1OCCCO2: > 100 µM
- CCN(CC)CCCC(C)Nc1c(Sc2cnc3cc(Cl)ccc3c2NC(C)CCCN(CC)CC)cnc2cc(Cl)ccc12 (stereo unspecified): 1.72 µM
- Cc1ccc(NC(=O)CC2C(=O)Nc3ccccc3S2(=O)=O)c(C)c1 (stereo unspecified): 8.32 µM
- CCOC(=O)/C=C(/C)Nc1nc2c(c(C(=O)OC)c1C#N)CCCC2: > 100 µM
- CCN(CC)CCNc1ccc(/N=N/c2ccc(S(N)(=O)=O)cc2)c2ccccc12: 4.52 µM
- O=C1[C@H](c2ccccc2)C2c3ccccc3CCN12 (stereo partly specified): > 10 µM
- N#CC12C(=O)NC(=O)C1(C#N)C1C=CC2CC1 (stereo unspecified): > 100 µM
- CC1(C)N/C(=C\C=O)C(C)(C)N1O: > 100 µM
- CCOC(=O)C1=C(O)C(=O)c2c(OC)ccc(OC)c2C1=O: > 100 µM

====

System: HCT-116
Experiment: NCI tumour cell line growth inhibition, 48 h
The source made the active and inactive calls. Rule as the data show it: active = GI50 up to about 1.1 µM and inactive = higher.
Outcome codes: label 1 for active, label 0 for inactive

* NS(=O)(=O)c1ccc(Nc2c3ccccc3nc3c(C(=O)NCCO)cccc23)cc1 | label 1
* CC1=NN(c2ccccc2Cl)C2(C1)C(Cl)C(=O)N2c1nc2ccccc2s1 (stereo unspecified) | label 0
* CC1CCC2CC(=O)OC([C@@H]3C(=O)O[C@@H](C4=CCCC4)C4C(C)CCC43)C12 (stereo partly specified) | label 0
* O=c1cc2ccccc2nn1Cc1cccc(Cl)c1 | label 0
* O=C(/C=C/c1ccsc1)c1ccsc1 | label 0
* CCOP(=O)(OCC)OC1C=CC2CCC1C2 (stereo unspecified) | label 0

====

// values below are reported GI50
System: DLD-1
Assay: NCI tumour cell line growth inhibition, 48 h
Active and inactive are the calls of the source. Rule as the data show it: active = GI50 up to about 1.1 µM and inactive = higher.
MEASURED ENDPOINT: GI50

• O=[N+]([O-])c1ccc(-c2ccc(C3=Nn4c(nnc4-c4ccc(Cl)cc4)SC3)o2)cc1 = > 91.4 µM (inactive)
• CN(CCO)c1nc(N)cc(=O)[nH]1 = > 100 µM (inactive)
• COc1ccc2c3c1C(=O)CCCC3CO2 (stereo not drawn) = > 100 µM (inactive)
• CC1C[C@H](OC(N)=O)C(C)CC1=O (stereo partly drawn) = > 100 µM (inactive)
• CC1CCC2CC(=O)OC([C@@H]3C(=O)O[C@@H](C4=CCCC4)C4C(C)CCC43)C12 (stereo partly drawn) = 84.5 µM (inactive)
• Fc1ccccc1C1SCc2nc3ccccc3n21 (stereo not drawn) = 53.7 µM (inactive)
• N#COc1ccc(Oc2ccccc2)cc1 = > 100 µM (inactive)
• Cn1cc(NC(=O)c2cc(NC(=O)CCCCCCCCCC(=O)Nc3cc(C(=O)Nc4cc(C(=O)NCCC(=N)N)n(C)c4)n(C)c3)cn2C)cc1C(=O)NCCC(=N)N = 34.2 µM (inactive)
• C=C1CCC2(C(C)=O)COC1(C)O2 (stereo not drawn) = > 100 µM (inactive)
• Oc1cccc(-c2cc(O)c3cc4c(cc3n2)OCO4)c1 = 3.43 µM (inactive)
• Oc1ccc(-c2c3ccccc3c(-c3ccc(O)cc3)c3ccccc23)cc1 = > 100 µM (inactive)
• Cc1c2cc[n+](C)cc2c(C)c2c1[nH]c1ccc(OCC(F)(F)F)cc12 = 1.4 µM (inactive)
• CC1(C)CCc2ccc(OCCC(=O)O)cc2O1 = > 100 µM (inactive)
• O=C1C=CC(=CC=C2C=CN(CCCCCCCCCCC(=O)NCCCCCCCCCCCC(=O)O)C=C2)C=C1 = > 100 µM (inactive)
• CCOP12(OCC)NC(=O)OC1(C(F)(F)F)c1ccccc1O2 (stereo not drawn) = > 100 µM (inactive)
• O=c1cc2ccccc2nn1Cc1cccc(Cl)c1 = > 100 µM (inactive)
• O=C1[C@@H]2C(c3ccc(Cl)cc3Cl)=NO[C@@H]2C(=O)N1c1ccc(Cc2ccc(N3C(=O)[C@H]4C(c5ccc(Cl)cc5Cl)=NO[C@H]4C3=O)cc2)cc1 = > 100 µM (inactive)
• COc1ccccc1/C=C1\CCC(CCN2CCOCC2)C1=O (stereo not drawn) = > 100 µM (inactive)
• CN(C)c1ccc(/C=c2/sc3nc(=O)c(-c4ccccc4NC(=O)C(F)(F)F)nn3c2=O)cc1 = > 100 µM (inactive)
• C/C=C/C1(C)/C(=N\O)C(C)(CCC)C(=O)N1O (stereo not drawn) = > 100 µM (inactive)
• O=C(c1ccccc1)c1ccc(OCCOc2ccc(Nc3ccccc3)cc2)cc1 = 50.9 µM (inactive)
• CC1=C(NC(=O)/C(=N/NC(=S)NN)C2C(=O)CC(C)(C)CC2=O)C(=O)c2ccccc2C1=O = 4.48 µM (inactive)
• COc1cc2c(cc1OC)C(Cc1c3ccccc3cc3ccccc13)N(C)CC2 (stereo not drawn) = 32.1 µM (inactive)
• Cc1ccc(NC(=O)C2C(=O)C(=O)N(c3ccc(C)cc3)C2=O)cc1 (stereo not drawn) = > 100 µM (inactive)
• Cc1ccc(/C=C/C(=O)c2sc(-c3nc(C)c(C(=O)/C=C/c4ccc(C)cc4)s3)nc2C)cc1 = > 100 µM (inactive)
• C/C(CCc1ccccc1)=N\NC(N)=S = > 100 µM (inactive)
• O=C1c2ccccc2C(=O)C12CCc1ccccc12 = > 100 µM (inactive)
• C[N+]1(C)CCCC1C(=O)[O-] (stereo not drawn) = > 100 µM (inactive)
• O=C(CC(=O)C1CCOC1=O)C(=O)Nc1ccc(Cl)cc1Cl (stereo not drawn) = > 100 µM (inactive)
• O=S(O)CCCCCSSCCCCSSCCCCCS(=O)O = > 100 µM (inactive)
• COc1ccc(C2CCC(Cl)(OC)CC2C=O)cc1 (stereo not drawn) = 91.4 µM (inactive)
• O=C(Cc1nc2ccccc2s1)Nc1ccc(Cl)cc1 = 91.6 µM (inactive)
• CN1CCS(=O)(=O)NC(Cc2ccccc2)C(=O)N2CCCC2C1=O (stereo not drawn) = > 100 µM (inactive)
• Nc1nc(Cl)cc(NCCCCCCNc2cc(Cl)nc(N)n2)n1 = > 100 µM (inactive)
• Cc1cc(C)nc(NS(=O)(=O)c2ccc(Nc3c4ccccc4nc4c(C(=O)Nc5ccc(S(=O)(=O)N=C(N)N)cc5)ccc(Cl)c34)cc2)n1 = 33.1 µM (inactive)
• CC1=C(C(=O)Nc2ccc(Cl)c(C(=O)OC(C)C)c2)SCCO1 = 74 µM (inactive)
• S=C(Nc1ccccc1)N1N=C2c3ccccc3CC[C@H]2[C@@H]1c1ccccc1 = 9.42 µM (inactive)
• NNC(=O)CCC(=O)Nc1cc(Cl)c(Cl)cc1Cl = > 100 µM (inactive)

====

Test system: SF-268
Experiment: NCI tumour cell line growth inhibition, 48 h
The source made the active and inactive calls. No stated cut-off is given here; in the data, active = GI50 up to about 1.1 µM and inactive = higher.
compounds and their reported GI50
MEASURED ENDPOINT: GI50

- O=C(NC(CO)CO)c1ccc2cc(C(=O)N3CC(CCl)c4ccc([N+](=O)[O-])cc43)[nH]c2c1 (centres undefined): > 100 µM (inactive)
- CC(=O)OCC1OC(OCC2OC(N3C(=S)N[C@H]([C@@H](O)[C@H](O)[C@H](O)CO)[C@H]3O)C(OC(C)=O)C(OC(C)=O)C2OC(C)=O)C(OC(C)=O)C(OC(C)=O)C1OC(C)=O (some centres undefined): > 100 µM (inactive)
- CN1C(=O)C(c2c[nH]c3ccccc23)N(C)C(=O)C1c1c[nH]c2ccccc12 (centres undefined): 86.3 µM (inactive)
- CN(C)c1ccc(/C=c2/sc3nc(=O)c(-c4ccccc4NC(=O)C(F)(F)F)nn3c2=O)cc1: > 100 µM (inactive)
